Origin of the recorded values: the RNAGym collection of RNA variant scans (doi:10.7554/elife.80360)

Give measured self-cleavage for each item. Keep answers brief.
B1: Twister Ribozyme (parent)
chain: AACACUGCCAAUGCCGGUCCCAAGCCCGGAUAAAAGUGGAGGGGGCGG

variants of: B1; assay: self-cleavage, relative activity (ratio to wild type); higher = more cleavage; co-transcriptional

Here's what some known entries look like.
residue_codes=CACACUGCCAAAGCCGGUCCCAAGCCCGGAUAAAAGUGGAGGGGGCGG test_value=0.223
residue_codes=AACACUUCCAAUGCCGGUCCCUAGCCCGGAUAAAAGUGGAGGGGGCGG test_value=0.0446
residue_codes=AACACUGCCAAUGCCGGUCCCAAGACCGGAGAAAAGUGGAGGGGGCGG test_value=0.127

# batch: return self-cleavage for each of the 8 variants below
1. AACACUGCCAAUGCCGGUCCCAAGCCCGGGUAAAAGUGGAGGGGGCGA
2. AACACUGCCACUGCCGGUCCCAAGCCCGGGUAAAAGUGGAGGGGGCGG
3. AACACCGCCAAUGCAGGUCCCAAGCCCGGAUAAAAGUGGAGGGGGCGG
4. AACAUGGCCAAUGCCGGUCCCAAGCCCGGAUAAAAGUGGAGGGGGCGG
5. AACACAGCCAAUGCCGGUCCCAAGCACGGAUAAAAGUGGAGGGGGCGG
6. AACACUGCCAAUGCCGGUCCCAAGCCCGGAUAGAAGUGUAGGGGGCGG
7. AACACUGCCACUGACGGUCCCAAGCCCGGAUAAAAGUGGAGGGGGCGG
8. AACACUGCCAAUGCCGGUCUCAAGCCCGGAUAAAAGUGGCGGGGGCGG

1: 0.958; 2: 0.739; 3: 0.169; 4: 0.261; 5: 0.144; 6: 0.222; 7: 0.69; 8: 0.0976

# batch: return self-cleavage for each of the 5 variants below
1. AACACUGCCAAUGACGGUCCCAAGCCCGGAUAAAAGUGGAGGGGGCCG
2. AACACUGCCAAUGCCGGUGCCAAUCCCGGAUAAAAGUGGAGGGGGCGG
3. AACACUGCCAAUGCCGGUCUCAAGCCCGGAUAAUAGUGGAGGGGGCGG
4. AACGCUGCCAAUGCCGGUCCCAUGCCCGGAUAAAAGUGGAGGGGGCGG
5. AACACUGCCAAUGCCGGUCCCAAGCCCGGACAAAUGUGGAGGGGGCGG

1: 0.44; 2: 0.0534; 3: 0.404; 4: 0.358; 5: 1.06

# batch: return self-cleavage for each of the 3 variants below
1. AACACUGCCAAUGCCGGUCCCAAGCCCUGUUAAAAGUGGAGGGGGCGG
2. AACUCUGCCAAUGCCGGUCCCAAGCCCGGAUAAAAGUGGAGGGGGCUG
3. AACACUUCCAAUGCCGGUCCCAAGACCGGAUAAAAGUGGAGGGGGCGG

0.985
0.0997
0.224

# batch: return self-cleavage for each of the 5 variants below
1. AACACUGCCAAUGCCGGUCCCCAGCCCGGAUAAAAGUGGAGGGGGUGG
2. AACACUGCCAAAGCCGGUCCCAAGCCCGGAUAAAAGUGGAGGGCGCGG
3. AACACUGCCAAUGCCGGUCCCAAACCCGGAUAAAAAUGGAGGGGGCGG
4. AACACUGCCAAUGCCGGUCCCAAGCCCGGAUAAAACUGGAGGGGGUGG
5. AACACUGCCAAUGCGGGUCCCAAGUCCGGAUAAAAGUGGAGGGGGCGG

[0.832, 1.19, 0.0947, 0.585, 0.165]

# batch: return self-cleavage for each of the 5 variants below
1. AACACUGCCAAUGCCGGUCCCAAGCCCGGAUAAAAGUGGAAGGUGCGG
2. AACACUGCCAAUGCCGGUCCCACGCCGGGAUAAAAGUGGAGGGGGCGG
3. AACACUGCCAAUGCCGGUCCCAACCCCGGAUAAAAGUGUAGGGGGCGG
4. AACACUGCCAAUGCCGGUCCCAAGCCCGGAGAAAAGUUGAGGGGGCGG
5. AACACUGCCAAUGCCGGUCUCAAUCCCGGAUAAAAGUGGAGGGGGCGG

1. 0.228
2. 0.0848
3. 0.0664
4. 0.778
5. 0.0768

# batch: return self-cleavage for each of the 2 variants below
1. AACACUGCCAAUGACAGUCCCAAGCCCGGAUAAAAGUGGAGGGGGCGG
2. AACACUGCCAAUGCCGGUCCCGAGCCCGGAUAAAAGUGGAUGGGGCGG

[0.641, 0.119]

# batch: return self-cleavage for each of the 2 variants below
1. AACACUGCAAAUCCCGGUCCCAAGCCCGGAUAAAAGUGGAGGGGGCGG
2. AAUACUGCCAAUGCCGGUCCCAAGCCCGGAUAAAAGUUGAGGGGGCGG

[0.729, 0.409]

# batch: return self-cleavage for each of the 4 variants below
1. AACACUGCCAAUGCCGGUACCAGGCCCGGAUAAAAGUGGAGGGGGCGG
2. AACACUGCCAAUGCCGGUCCCAAGCCCGGAUAAAAGUGGAGUCGGCGG
3. AACCCUGCCAAUGCCGGUCCCAAGCCCGAAUAAAAGUGGAGGGGGCGG
4. AACAGGGCCAAUGCCGGUCCCAAGCCCGGAUAAAAGUGGAGGGGGCGG

0.0964
0.114
0.168
0.232
